Assay: physchem
Details: pH 7.4 buffer
Returns one of Satisfied or Not satisfied; Satisfied when solubility thermodynamic is >= 70 µM.

Would you please look over these solved cases?
> print(dat)
                                   compound          group
1  CC(=O)N1CCN(CC(O)CN2CCN(CCc3c(-c4cc(C)cc(C)c4)[nH]c4sc(C(C)(C)C(=O)N5C6CCC5CC6)cc34)CC2)CC1 (centres undefined)      Satisfied
2  Cc1nc(C)c(C(=O)N[C@@H](Cc2cccc(Cl)c2)C(=O)NCC#N)s1  Not satisfied
3  Cc1ccc(CO)cc1N(C)c1ccnc(Nc2cc(N3CCOCC3)nc(N3CCOCC3)c2)n1  Not satisfied

Determine whether this compound has solubility thermodynamic no lower than 70 µM: NC(=O)Nc1sc(-c2ccc(Cl)c(Cl)c2)cc1C(=O)N[C@H]1CCCNC1
Not satisfied

Determine whether this compound has solubility thermodynamic no lower than 70 µM: CC(=O)N1CCN(c2ccc(NC(=O)c3nnc(Nc4ccccc4F)o3)cc2)CC1
Not satisfied

Determine whether this compound has solubility thermodynamic no lower than 70 µM: O=c1cc(-c2cccnc2)[nH]c2cc(Cc3ccccc3)ccc12
Not satisfied

Determine whether this compound has solubility thermodynamic no lower than 70 µM: O=C(Nc1ccccc1)c1ccc(OCCCN2CCCC2)cc1OCc1cccc(F)c1
Not satisfied

Determine whether this compound has solubility thermodynamic no lower than 70 µM: COc1cccc2c1c(NS(=O)(=O)c1ccc(Cl)s1)nn2Cc1cccc(CNC(=O)C(C)(C)O)c1
Satisfied

###

Experiment: in vitro
Conditions: SD, HW or BN, rat, plasma
Record form. Attribute: fraction unbound at 5 h. Fill in for each entry.
Numbers only.

Below are 4 compounds. Give each one its fraction unbound at 5 h.
1. COc1ccc(-c2nc(-c3ccccn3)no2)cc1
2. CC(=O)N1CCN(c2nc(N[C@H](C)c3cnc4ccccc4c3)c3c(n2)C(=O)N(C(C)C)C3)CC1
3. COCCC(C)n1nc(C)c(C(=O)N[C@@H](C)C(C)(C)C)c1NS(=O)(=O)c1ccc(C)cc1 (stereo not given in full)
4. CC(C)(CCCCCOCCc1ccccc1)NCCc1ccc(O)c2nc(O)sc12

0.0544
0.0119
0.276
0.0229

Below are 4 compounds. Give each one its fraction unbound at 5 h.
1. CC1(C)CNC(=O)c2sc(N3CCOCC3)nc2C1
2. Cc1cc(C(C)Nc2ccccc2)c2nc(N3CCOCC3)cc(=O)n2c1 (stereo not given)
3. Oc1nc2c(O)ccc(CCNCCCSCCOCCc3cccc4ccccc34)c2s1
4. COc1ncc(-c2ccccc2C(F)(F)CNC(=O)c2ccc(COCC(F)(F)F)nc2)cn1

[0.517, 0.0467, 0.0122, 0.129]

###

Record form. Attribute: solubility thermodynamic. Fill in for each entry.
Experiment: physchem
Conditions: pH 7.4 buffer
Answers are plain numbers, in µM.

Below, each entry is followed by its recorded solubility thermodynamic result.
> print(dat)
                                   molecule  numeric.readout
1  CCN(CCO)CCCOc1cc2ncnc(Nc3cc(CC(=O)Nc4cccc(F)c4F)[nH]n3)c2cc1OC                3
2  COC[C@H](C)Oc1cc(Oc2cccc(Cl)c2)cc(C(=O)Nc2ccc(C(=O)O)cn2)c1             1170
3                  CNc1ncc(C(=O)c2ccccc2)s1              724
4  C[C@@H](Oc1cccc2ncnc(Nc3ccc4c(cnn4Cc4nccs4)c3)c12)C(=O)N(C)C             29.5
5  NC(=O)Nc1sc(-c2ccc(CNC3CCCC3)cc2)cc1C(N)=O              479
6               Cc1cc(=O)oc2cc3c(cc12)CCCN3             13.8
7                  CSc1nc(N)nc(-c2ccccc2)n1               24
8  CS(=O)(=O)c1cccc(Nc2nccc(Nc3cccc4ncoc34)n2)c1              5.6
9  CN(C)c1nc(Cc2ccc(NC(=O)c3ccc(C(F)(F)F)cc3)cc2)nc(N(C)C)c1CC(=O)O [BI-671800]             28.8

Could you now look at the following molecule, please?
For the molecule COc1cc(Oc2ccc(C(=O)NCc3ccncc3)cc2)ccc1[N+](=O)[O-] , give its measured solubility thermodynamic value.
21.4
